Listing of entries alongside the reported CP-DAA IC50.
# Substrate: CP C3-convertase (C4b2a) (UniProt P0C0L4)
# Sequence (P0C0L4 757-1446 limits assumed, chain 1 of 4): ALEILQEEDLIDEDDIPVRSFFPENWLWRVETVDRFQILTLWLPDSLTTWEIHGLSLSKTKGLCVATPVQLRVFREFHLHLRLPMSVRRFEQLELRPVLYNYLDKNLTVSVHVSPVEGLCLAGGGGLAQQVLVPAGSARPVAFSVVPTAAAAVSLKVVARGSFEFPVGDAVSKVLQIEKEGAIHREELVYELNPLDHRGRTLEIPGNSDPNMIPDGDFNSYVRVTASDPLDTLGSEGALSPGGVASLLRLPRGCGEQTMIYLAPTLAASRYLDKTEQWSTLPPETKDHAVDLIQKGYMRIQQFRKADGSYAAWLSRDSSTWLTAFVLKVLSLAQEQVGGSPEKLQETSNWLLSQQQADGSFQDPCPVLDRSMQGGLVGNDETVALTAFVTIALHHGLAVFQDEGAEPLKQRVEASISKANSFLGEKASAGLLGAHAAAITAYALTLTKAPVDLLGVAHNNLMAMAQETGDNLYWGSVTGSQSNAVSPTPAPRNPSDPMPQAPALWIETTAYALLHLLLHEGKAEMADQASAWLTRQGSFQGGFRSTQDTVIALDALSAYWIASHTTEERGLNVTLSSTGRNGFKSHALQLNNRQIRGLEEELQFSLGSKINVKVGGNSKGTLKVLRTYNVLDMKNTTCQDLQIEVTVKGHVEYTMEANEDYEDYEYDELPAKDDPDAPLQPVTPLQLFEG
# Sequence (P0C0L4 20-675 limits assumed, chain 2 of 4): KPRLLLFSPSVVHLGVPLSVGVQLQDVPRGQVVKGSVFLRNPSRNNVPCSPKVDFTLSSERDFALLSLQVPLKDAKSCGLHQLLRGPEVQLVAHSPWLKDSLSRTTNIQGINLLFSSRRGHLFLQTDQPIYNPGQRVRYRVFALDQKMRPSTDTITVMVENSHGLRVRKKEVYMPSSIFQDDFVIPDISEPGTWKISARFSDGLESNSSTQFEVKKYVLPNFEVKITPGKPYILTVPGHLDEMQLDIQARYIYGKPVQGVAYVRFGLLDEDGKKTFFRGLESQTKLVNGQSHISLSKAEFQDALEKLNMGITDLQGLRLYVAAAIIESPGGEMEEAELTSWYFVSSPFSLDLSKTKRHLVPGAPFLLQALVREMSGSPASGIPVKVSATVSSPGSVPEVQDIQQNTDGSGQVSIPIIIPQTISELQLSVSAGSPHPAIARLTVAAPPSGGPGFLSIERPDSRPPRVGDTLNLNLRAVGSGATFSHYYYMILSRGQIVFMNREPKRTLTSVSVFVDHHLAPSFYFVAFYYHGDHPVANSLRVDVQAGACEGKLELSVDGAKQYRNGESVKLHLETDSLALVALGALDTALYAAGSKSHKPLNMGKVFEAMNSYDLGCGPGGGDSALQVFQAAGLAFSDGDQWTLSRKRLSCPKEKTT
# Sequence (P0C0L4 1454-1744 limits assumed, chain 3 of 4): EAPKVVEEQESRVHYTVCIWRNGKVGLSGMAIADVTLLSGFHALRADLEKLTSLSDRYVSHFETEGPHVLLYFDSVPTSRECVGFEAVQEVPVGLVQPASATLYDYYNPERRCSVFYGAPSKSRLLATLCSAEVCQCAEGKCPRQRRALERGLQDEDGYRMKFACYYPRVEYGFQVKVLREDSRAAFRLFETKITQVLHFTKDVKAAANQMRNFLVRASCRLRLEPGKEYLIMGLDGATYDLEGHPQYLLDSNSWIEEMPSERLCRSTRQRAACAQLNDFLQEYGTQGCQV
# Sequence (P06681 244-752 limits assumed, chain 4 of 4, further chain): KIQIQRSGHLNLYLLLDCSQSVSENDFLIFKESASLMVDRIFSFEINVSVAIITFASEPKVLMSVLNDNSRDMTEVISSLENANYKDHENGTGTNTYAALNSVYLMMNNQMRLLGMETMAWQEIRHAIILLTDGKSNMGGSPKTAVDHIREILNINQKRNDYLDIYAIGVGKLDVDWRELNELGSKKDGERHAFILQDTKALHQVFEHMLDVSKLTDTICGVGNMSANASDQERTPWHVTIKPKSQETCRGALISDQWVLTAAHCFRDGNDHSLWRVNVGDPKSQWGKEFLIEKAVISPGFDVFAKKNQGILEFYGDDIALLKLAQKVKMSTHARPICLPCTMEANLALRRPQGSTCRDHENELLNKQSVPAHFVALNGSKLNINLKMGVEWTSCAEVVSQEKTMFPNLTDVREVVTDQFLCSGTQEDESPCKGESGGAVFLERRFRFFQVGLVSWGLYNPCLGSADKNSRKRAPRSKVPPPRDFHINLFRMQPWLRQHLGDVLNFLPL
# protocol-text: cell-based or functional assay
Express the result in µM but write the number alone.

binder="D2D3M3M4 (F197I) (protein) CEVPTRLNSASLKQPYITQNYFPVGTVVEYECRPGYRREPSLSPKLTCLQNLKWSTAVEFCKKKSCPNPGEIRNGQIDVPGGILFGATISFSCNTGYKLIGSTSSFCLISGSSVQWSDPLPECREIYCTPPPKIKNGKHTFSEVEVFEYLDAVTYSCDPAPGPDPFSLIGESTIYCGDNSVWSRAAPECKVVKCRFPVVENGKQISGFGKKFYYKATVMFECDKGFYLDGSDTIVCDSNSTWDPPVPKCLKVL" quantity_name="CP-DAA IC50" numeric_result=30.7
binder="D2D3M3M4 (S199K) (protein) CEVPTRLNSASLKQPYITQNYFPVGTVVEYECRPGYRREPSLSPKLTCLQNLKWSTAVEFCKKKSCPNPGEIRNGQIDVPGGILFGATISFSCNTGYKLFGKTSSFCLISGSSVQWSDPLPECREIYCTPPPKIKNGKHTFSEVEVFEYLDAVTYSCDPAPGPDPFSLIGESTIYCGDNSVWSRAAPECKVVKCRFPVVENGKQISGFGKKFYYKATVMFECDKGFYLDGSDTIVCDSNSTWDPPVPKCLKVL" quantity_name="CP-DAA IC50" numeric_result=23.7
binder="D2D3M3M4 (T192E) (protein) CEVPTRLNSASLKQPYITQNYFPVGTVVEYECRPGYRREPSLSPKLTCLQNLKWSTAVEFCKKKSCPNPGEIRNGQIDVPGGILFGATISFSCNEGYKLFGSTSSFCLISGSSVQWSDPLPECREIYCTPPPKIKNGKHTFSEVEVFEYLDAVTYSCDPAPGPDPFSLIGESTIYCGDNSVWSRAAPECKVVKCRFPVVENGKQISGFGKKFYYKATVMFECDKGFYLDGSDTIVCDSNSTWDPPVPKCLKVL" quantity_name="CP-DAA IC50" numeric_result=15.5
binder="D2D3M3M4 (T200Y) (protein) CEVPTRLNSASLKQPYITQNYFPVGTVVEYECRPGYRREPSLSPKLTCLQNLKWSTAVEFCKKKSCPNPGEIRNGQIDVPGGILFGATISFSCNTGYKLFGSYSSFCLISGSSVQWSDPLPECREIYCTPPPKIKNGKHTFSEVEVFEYLDAVTYSCDPAPGPDPFSLIGESTIYCGDNSVWSRAAPECKVVKCRFPVVENGKQISGFGKKFYYKATVMFECDKGFYLDGSDTIVCDSNSTWDPPVPKCLKVL" quantity_name="CP-DAA IC50" numeric_result=17.7

Output measured CP-DAA IC50 for this item: D2D3M3M4 (P216K) (protein) CEVPTRLNSASLKQPYITQNYFPVGTVVEYECRPGYRREPSLSPKLTCLQNLKWSTAVEFCKKKSCPNPGEIRNGQIDVPGGILFGATISFSCNTGYKLFGSTSSFCLISGSSVQWSDKLPECREIYCTPPPKIKNGKHTFSEVEVFEYLDAVTYSCDPAPGPDPFSLIGESTIYCGDNSVWSRAAPECKVVKCRFPVVENGKQISGFGKKFYYKATVMFECDKGFYLDGSDTIVCDSNSTWDPPVPKCLKVL 21
